assay target: human CTLA-4 (human) (UniProt P16410)
Sequence (P16410 36-223): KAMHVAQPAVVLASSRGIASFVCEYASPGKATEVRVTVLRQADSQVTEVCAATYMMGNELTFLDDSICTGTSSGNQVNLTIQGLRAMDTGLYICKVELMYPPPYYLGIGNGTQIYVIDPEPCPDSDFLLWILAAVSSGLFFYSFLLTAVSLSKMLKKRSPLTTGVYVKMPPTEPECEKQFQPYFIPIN
test summary: flow cytometry, CHO cells expressing huCTLA4
value type: MFI at 33.3 nM (MFI)

The following binders have reported results that may help.
binder="variant CD80 IgV-Fc H18Y/V20A/Q33L/E35D/M47V/Y53F (Fc fusion) VIHVTKEVKEVATLSCGYNASVEELAQTRIYWLKDKKMVLTMMSGDVNIWPEFKNRTIFDITNNLSIVILALRPSDEGTYECVVLKYEKDAFKREHLAEVTLSVKAD" value_type="MFI at 33.3 nM" endpoint_result=2880
binder="variant CD80 IgV-Fc H18Y/A26E/E35D/M47L/L85Q/D90G (Fc fusion) VIHVTKEVKEVATLSCGYNVSVEELEQTRIYWQKDKKMVLTMMSGDLNIWPEYKNRTIFDITNNLSIVILALRPSDEGTYECVVQKYEKGAFKREHLAEVTLSVKAD" value_type="MFI at 33.3 nM" endpoint_result=231000

(I) variant CD80 IgV-Fc E35D/D46E/M47V/L97Q (Fc fusion) VIHVTKEVKEVATLSCGHNVSVEELAQTRIYWQKDKKMVLTMMSGEVNIWPEYKNRTIFDITNNLSIVILALRPSDEGTYECVVLKYEKDAFKREHQAEVTLSVKAD
(II) variant CD80 IgV-Fc A26E/Q33R/E35D/M47L/L85Q/K86E (Fc fusion) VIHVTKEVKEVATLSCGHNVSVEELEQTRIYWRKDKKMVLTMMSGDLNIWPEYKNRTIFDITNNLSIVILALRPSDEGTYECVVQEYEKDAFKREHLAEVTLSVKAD
Smaller MFI at 33.3 nM value, I vs II ? Reply briefly: the label of your chosen item. II

The measured values listed here are drawn from patent US20220177587A1.
